target: His6‐FraB (Salmonella FraB deglycase) (Salmonella enterica subsp. enterica serovar Typhimurium); assay: FraB-G6PD coupled assay, Michaelis–Menten analysis for K I and mode of inhibition; assay type: biochemical; settings: Trial 1; 6-P-F-Asp 125 µM, S/Km 2.97619; unit from Fig. S11 axis; read-out: IC50 (IC50 versus [S]/Km plots)
Recorded log10(IC50) for the following compounds
For clarity, the numbers are log10 values of IC50 expressed in µM.

Solved entries:
{"COMPOUND": "Cc1cccc(Cl)c1-n1sc(=O)n(CC2CC2)c1=O", "log10(IC50)": 0.65}
{"COMPOUND": "O=c1sn(-c2ccccc2C(F)(F)F)c(=O)n1CC1CC1", "log10(IC50)": 0.19}
{"COMPOUND": "CC(C)Cc1cc(-c2nn3c(-c4ccccc4Cl)nnc3s2)n[nH]1", "log10(IC50)": 1.31}
{"COMPOUND": "O=c1[nH][nH]c(=S)n1Cc1ccccc1", "log10(IC50)": 1.26}

Would you kindly look at the next entry?
Dear colleague, I am looking for the recorded log10(IC50) of the following compound: c1ccc(-c2nnc3sc(C4COc5ccccc5O4)nn23)nc1 (centres unmarked)
1.53

====

molecular target: His6‐FraB (Salmonella FraB deglycase) (Salmonella enterica subsp. enterica serovar Typhimurium, UniProt Q8ZLD0); assay: FraB-G6PD coupled assay, Michaelis–Menten analysis for K I and mode of inhibition; type: biochemical; details: Trial 2; 6-P-F-Asp 3000 µM, S/Km 71.42857; unit from Fig. S11 axis; read-out: IC50 (IC50 versus [S]/Km plots)
Sequence (Q8ZLD0 entry or part of it): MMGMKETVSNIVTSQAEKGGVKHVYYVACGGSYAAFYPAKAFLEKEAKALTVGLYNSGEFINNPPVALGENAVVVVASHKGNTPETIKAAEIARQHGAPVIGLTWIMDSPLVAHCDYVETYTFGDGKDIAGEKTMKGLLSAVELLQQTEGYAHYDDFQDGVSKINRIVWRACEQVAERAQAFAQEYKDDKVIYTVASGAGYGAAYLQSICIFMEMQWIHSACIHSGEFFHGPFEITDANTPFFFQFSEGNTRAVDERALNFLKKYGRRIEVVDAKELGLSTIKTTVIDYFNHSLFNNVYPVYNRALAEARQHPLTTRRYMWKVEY
Recorded IC50 for the following molecules

Solved entries:
{"MOLECULE": "O=c1[nH][nH]c(=S)n1Cc1ccccc1 [1533:K12]", "IC50": "20.7 µM"}
{"MOLECULE": "c1ccc(-c2nnc3sc(C4COc5ccccc5O4)nn23)nc1 (centres unmarked) [3469:F02]", "IC50": "67.2 µM"}
{"MOLECULE": "Cc1cccc(Cl)c1-n1sc(=O)n(CC2CC2)c1=O [1524:E12]", "IC50": "5.7824 µM"}
{"MOLECULE": "CC(C)Cc1cc(-c2nn3c(-c4ccccc4Cl)nnc3s2)n[nH]1 [3470:A09]", "IC50": "15.3 µM"}

Would you kindly look at the next entry?
Dear colleague, I am looking for the recorded IC50 of the following molecule: O=c1sn(-c2ccccc2C(F)(F)F)c(=O)n1CC1CC1 [1524:G12]
1.66 µM

====

Biological target: His6‐FraB (Salmonella FraB deglycase) (Salmonella enterica subsp. enterica serovar Typhimurium)
Experiment: FraB-G6PD coupled assay, IC50 determination
Assay type: biochemical
Conditions: Trial 1; 0.25 mM 6-P-F-Asp; unit in Fig. S10; read-out: IC50 (curve fit of IC50 plots, Fig. S10)
Source text: The substrate for FraB, 6‐P‐F‐Asp, was synthesized as previously described. FraB activity was monitored as described previously, with the following changes. […] NADH generation was monitored using either absorbance (340 nm) or fluorescence (350 nm excitation, 450 nm emission) and with either an INFINITE M1000 PRO (Tecan, Mannedorf, Switzerland) or Synergy H1 (Biotek, Winooski, VT, USA) plate reader. Absorbance/fluorescence was plotted against time and slopes were obtained by linear regression analyses. […]
Recorded pIC50 for the following molecules
Scale: pIC50 equals -log10([C]), with [C] in mol/L.

{"MOLECULE": "O=c1[nH][nH]c(=S)n1Cc1ccccc1 [1533:K12]", "NUMERIC READOUT": 4.50}

Would you kindly look at the next entry?
Dear colleague, I am looking for the recorded pIC50 of the following molecule: CC(C)Cc1cc(-c2nn3c(-c4ccccc4Cl)nnc3s2)n[nH]1 [3470:A09]
4.80

====

Recorded Ki for the following molecules
molecular target: His6‐FraB (Salmonella FraB deglycase) (Salmonella enterica subsp. enterica serovar Typhimurium); assay: FraB-G6PD coupled assay, Michaelis–Menten analysis for K I and mode of inhibition; format: biochemical; details: independent trial shown in Fig. S11 panels A-L; read-out: KI from α′ vs [I] plot
Express the result in µM but write the number alone.

{"SUBSTANCE SMILES": "O=c1[nH][nH]c(=S)n1Cc1ccccc1", "UNIT TEXT": "µM", "Ki": 13}

Would you kindly look at the next entry?
Dear colleague, I am looking for the recorded Ki of the following molecule: CC(C)Cc1cc(-c2nn3c(-c4ccccc4Cl)nnc3s2)n[nH]1
7

====

Recorded IC50 for the following molecules
molecular target: His6‐FraB (Salmonella FraB deglycase) (Salmonella enterica subsp. enterica serovar Typhimurium, UniProt Q8ZLD0); assay: FraB-G6PD coupled assay, Michaelis–Menten analysis for K I and mode of inhibition; assay type: biochemical; conditions: Trial 1; 6-P-F-Asp 3000 µM, S/Km 71.42857; unit from Fig. S11 axis; read-out: IC50 (IC50 versus [S]/Km plots)
Express the result in µM but write the number alone.

Solved entries:
{"MOLECULE": "CC(C)Cc1cc(-c2nn3c(-c4ccccc4Cl)nnc3s2)n[nH]1", "IC50, µM": 23.2}
{"MOLECULE": "O=c1[nH][nH]c(=S)n1Cc1ccccc1", "IC50, µM": 21.2}
{"MOLECULE": "O=c1sn(-c2ccccc2C(F)(F)F)c(=O)n1CC1CC1", "IC50, µM": 1.65}
{"MOLECULE": "Cc1cccc(Cl)c1-n1sc(=O)n(CC2CC2)c1=O", "IC50, µM": 5.5036}

Would you kindly look at the next entry?
Dear colleague, I am looking for the recorded IC50 of the following molecule: c1ccc(-c2nnc3sc(C4COc5ccccc5O4)nn23)nc1 (centres unmarked)
52.6

====

molecular target: His6‐FraB (Salmonella FraB deglycase) (Salmonella enterica subsp. enterica serovar Typhimurium); test: FraB-G6PD coupled assay, Michaelis–Menten analysis for K I and mode of inhibition; format: biochemical; settings: Trial 2; 6-P-F-Asp 1000 µM, S/Km 23.80952; unit from Fig. S11 axis; read-out: IC50 (IC50 versus [S]/Km plots)
Recorded IC50 for the following molecules
Express the result in µM but write the number alone.

Solved entries:
{"MOLECULE": "O=c1sn(-c2ccccc2C(F)(F)F)c(=O)n1CC1CC1 [1524:G12]", "IC50 [µM]": 1.44}
{"MOLECULE": "c1ccc(-c2nnc3sc(C4COc5ccccc5O4)nn23)nc1 (centres unmarked) [3469:F02]", "IC50 [µM]": 48.9}
{"MOLECULE": "Cc1cccc(Cl)c1-n1sc(=O)n(CC2CC2)c1=O [1524:E12]", "IC50 [µM]": 5.0782}

Dear colleague, I am looking for the recorded IC50 of the following molecule: CC(C)Cc1cc(-c2nn3c(-c4ccccc4Cl)nnc3s2)n[nH]1 [3470:A09]
11.3

Input O=c1[nH][nH]c(=S)n1Cc1ccccc1 [1533:K12]
21.1

====

biological target: His6‐FraB (Salmonella FraB deglycase) (Salmonella enterica subsp. enterica serovar Typhimurium); test: FraB-G6PD coupled assay, Michaelis–Menten analysis for K I and mode of inhibition; assay type: biochemical; details: IC50 (IC50 versus [S]/Km plots), Trial 1; 6-P-F-Asp 250 µM, S/Km 5.952381; unit from Fig. S11 axis
EXPERIMENTAL ENDPOINT: pIC50
Scale: pIC50 equals -log10([C]), with [C] in mol/L.

Dear colleague, I am looking for the recorded pIC50 of the following molecule: Fc1ccc(-c2nn3c(-c4ccccn4)nnc3s2)cc1 [3469:N17]
4.47

====

target: His6‐FraB (Salmonella FraB deglycase) (Salmonella enterica subsp. enterica serovar Typhimurium, UniProt Q8ZLD0); assay: FraB-G6PD coupled assay, Michaelis–Menten analysis for K I and mode of inhibition; assay type: biochemical; settings: KI from α′ vs [I] plot, trial shown in Fig. S11 panels M-X
EXPERIMENTAL ENDPOINT: pKi
Scale: pKi equals -log10([C]), with [C] in mol/L.

Dear colleague, I am looking for the recorded pKi of the following compound: Fc1ccc(-c2nn3c(-c4ccccn4)nnc3s2)cc1 [3469:N17]
4.60

====

target: His6‐FraB (Salmonella FraB deglycase) (Salmonella enterica subsp. enterica serovar Typhimurium, UniProt Q8ZLD0); assay: FraB-G6PD coupled assay, Michaelis–Menten analysis for K I and mode of inhibition; format: biochemical; settings: IC50 (IC50 versus [S]/Km plots), Trial 2; 6-P-F-Asp 750 µM, S/Km 17.85714; unit from Fig. S11 axis
EXPERIMENTAL ENDPOINT: IC50

Dear colleague, I am looking for the recorded IC50 of the following compound: Fc1ccc(-c2nn3c(-c4ccccn4)nnc3s2)cc1 [3469:N17]
35.9 µM
